test system: MOLT-4 leukemia; test: NCI-60 one-dose screen, 48 h (100 = growth as untreated, 0 = no growth, -100 = all killed); conditions: 10 µM unless noted
The panel holds about 83,000 compounds, 20% with a hit somewhere; the sample as a whole holds those more often.
Give YES when the value for growth is at least 40%. Give NO when it is less.

[ask] Quick check: does "CC(=O)c1c2c(c3ccc4c5ccccc5ccc4n13)C(=O)c1ccccc1C2=O" have growth greater than or equal to 40%?
[reply] YES

[ask] Entry "COc1ccc2[nH]c(O)c(N=Nc3nc(-c4ccc(Cl)cc4)cs3)c2c1" please
[reply] NO

[ask] Entry "COc1ccccc1Nc1nnc(-c2c[nH]c3ccccc23)o1" please
[reply] NO

[ask] Entry "O=C(Nc1ccc(Cl)c(C(F)(F)F)c1)N1CCN(c2cc(-c3cn(-c4ccccc4)nc3-c3cccc(O)c3)ccn2)CC1" please
[reply] NO
